- Measurement Target: UniProt:Q06710
- Sequence (Q06710 whole entry): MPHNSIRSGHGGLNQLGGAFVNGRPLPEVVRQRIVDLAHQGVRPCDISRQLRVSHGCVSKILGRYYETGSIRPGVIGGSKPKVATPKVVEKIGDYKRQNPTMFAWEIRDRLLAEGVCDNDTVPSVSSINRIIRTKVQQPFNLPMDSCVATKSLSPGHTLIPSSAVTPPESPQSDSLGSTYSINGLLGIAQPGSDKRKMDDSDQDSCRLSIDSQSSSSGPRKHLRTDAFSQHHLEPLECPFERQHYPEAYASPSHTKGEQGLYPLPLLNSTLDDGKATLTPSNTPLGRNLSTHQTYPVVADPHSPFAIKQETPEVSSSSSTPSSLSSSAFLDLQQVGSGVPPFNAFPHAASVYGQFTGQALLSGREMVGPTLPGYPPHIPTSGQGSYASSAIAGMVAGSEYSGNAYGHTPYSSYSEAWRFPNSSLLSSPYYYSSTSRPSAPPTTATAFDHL
- Assay Method Text: inhibitors of PAX8-driven TPO luciferase reporter, dose response, RMG-I cells, cherry-pick (AID 687027);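 note: luciferase reporter driven by Pax8 target thyroperoxidase promoter measured by SteadyGlo luminescence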
- Assay type: functional, cell-based
The source made the active and inactive calls.
Readout Kind: AC50

>>> result("O=C(Cc1ccccn1)N1CCCCN2[C@@H](CO)[C@@H](c3ccc(-c4ccccc4F)cc3)[C@@H]2C1")
"57 µM (active)"
>>> result("C[C@@H]1CCCCO[C@@H](CN(C)Cc2ccc(Cl)c(Cl)c2)[C@H](C)CN([C@H](C)CO)C(=O)c2cc(NC(=O)c3ccccc3)ccc2O1")
"14 µM (active)"
>>> result("C[C@@H]1CCCCO[C@@H](CN(C)S(=O)(=O)c2ccccc2)[C@H](C)CN([C@H](C)CO)C(=O)c2cc(NC(=O)Nc3ccc(C(F)(F)F)cc3)ccc2O1")
"3.44 µM (active)"
>>> result("C[C@@H](NC(=O)c1[nH]cnc1C(=O)N[C@@H](Cc1ccccc1)C(=O)OC(C)(C)C)c1ccccc1")
"5.32 µM (active)"
>>> result("CCOCC(=O)NC1CCc2cc(OC(=O)COCC)c(OC)c(OC)c2-c2ccc(SC)c(=O)cc21 (stereo unspecified)")
"< 0.26 µM (active)"
>>> result("COc1ccc(CN(C)C[C@H]2OCCCC[C@H](C)Oc3ccc(NC(=O)Nc4ccc(C(F)(F)F)cc4)cc3C(=O)N([C@H](C)CO)C[C@@H]2C)cc1")
"10.9 µM (active)"

Problem: Supply reported AC50 belonging to this compound: `C[C@@H]1CN([C@H](C)CO)C(=O)c2cc(NS(=O)(=O)c3cccs3)ccc2O[C@@H](C)CCCCO[C@H]1CN(C)Cc1ccc(C(F)(F)F)cc1`
Solution: 8.66 µM (active)

Problem: Please indicate AC50 recorded for `Cc1nc(SCC(=O)Nc2nc3ccccc3s2)c(C#N)c(C)c1C`
Solution: < 0.26 µM (active)

Problem: Consider the compound `CC(=O)N(C1=C(Cl)C(=O)c2ccccc2C1=O)C1CCCCC1` . State its measured AC50.
Solution: 2.74 µM (active)

Problem: For the compound `Cc1nc2c(=O)n(C)c(=O)n(C)c2nc1Cl` , give its measured AC50 value.
Solution: 8.88 µM (active)

---

- Assay Method Text: Luminescence Cell-Based Dose Response HTS to Identify Activators of Luciferase Translation or Activity in H4 […] Cells. [Related pubchem assays: 1829 (Project Summary), 1814 (Primary HTS)]
- Format: functional
Activity calls are given as the source filed them.
Each item that follows carries a reported EC50.

See these solved cases before continuing.
>>> result("Brc1ccc2oc3c(N4CCOCC4)ncnc3c2c1")
"4.18 µM (active)"
>>> result("COc1ccc2cc(OCC(=O)NNC(=O)Nc3ccc(C(C)=O)cc3)ccc2c1")
"33.4 µM (active)"
>>> result("COC(=O)c1ccc(-n2cnc3ccccc32)nc1")
"16.1 µM (active)"
>>> result("O=C(/C=C(/c1ccc(Cl)cc1)n1cncn1)c1ccccc1")
"> 120 µM (not active)"

Then this compound:
Problem: Give EC50 for the following compound: `Cc1cc(/C=N/NC(=O)c2cccc(F)c2)c(C)n1-c1ccccc1`
Solution: < 0.1 µM (inconclusive)

---

- Measurement Target: Sentrin-specific protease 6 (Homo sapiens, UniProt Q9GZR1);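 note: Luminescence-based dose-response confirmatory assay of SENP6 inhibition, following up an ultra-high-throughput screen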
- Sequence (Q9GZR1 whole entry): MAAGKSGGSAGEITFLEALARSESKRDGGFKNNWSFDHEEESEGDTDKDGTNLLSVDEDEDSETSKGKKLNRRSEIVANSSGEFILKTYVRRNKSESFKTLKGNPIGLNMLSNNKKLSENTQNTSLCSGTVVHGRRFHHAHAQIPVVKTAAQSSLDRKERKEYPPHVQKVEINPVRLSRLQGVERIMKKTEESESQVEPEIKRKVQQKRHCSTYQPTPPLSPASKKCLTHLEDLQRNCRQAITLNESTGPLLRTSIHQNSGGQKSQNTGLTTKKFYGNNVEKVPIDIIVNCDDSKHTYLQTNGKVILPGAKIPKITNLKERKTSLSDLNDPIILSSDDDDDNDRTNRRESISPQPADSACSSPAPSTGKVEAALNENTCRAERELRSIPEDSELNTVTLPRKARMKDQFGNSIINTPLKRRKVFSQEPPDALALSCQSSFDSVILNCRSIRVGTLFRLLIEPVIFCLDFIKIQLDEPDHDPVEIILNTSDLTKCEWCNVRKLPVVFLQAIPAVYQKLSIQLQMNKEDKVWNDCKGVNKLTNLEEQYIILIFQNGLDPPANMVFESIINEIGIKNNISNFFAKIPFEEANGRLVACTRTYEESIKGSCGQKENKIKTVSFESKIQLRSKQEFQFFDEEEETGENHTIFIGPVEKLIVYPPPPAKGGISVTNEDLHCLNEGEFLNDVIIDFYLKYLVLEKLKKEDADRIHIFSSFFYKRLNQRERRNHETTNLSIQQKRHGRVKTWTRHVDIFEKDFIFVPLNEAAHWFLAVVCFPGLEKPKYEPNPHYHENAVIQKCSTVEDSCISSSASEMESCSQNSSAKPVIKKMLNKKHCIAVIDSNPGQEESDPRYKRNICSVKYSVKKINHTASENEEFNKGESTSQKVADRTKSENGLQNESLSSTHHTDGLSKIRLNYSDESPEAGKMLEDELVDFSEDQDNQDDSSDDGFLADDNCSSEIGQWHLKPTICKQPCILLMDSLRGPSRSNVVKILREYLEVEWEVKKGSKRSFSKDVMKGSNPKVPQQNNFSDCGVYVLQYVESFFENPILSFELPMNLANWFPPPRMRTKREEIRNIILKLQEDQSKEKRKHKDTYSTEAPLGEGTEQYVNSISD
- Assay type: functional
Activity calls are given as the source filed them.
Readout Kind: IC50

Examples from the recorded data:
>>> result("CCSc1nsc(NC(=O)Nc2ccc(F)cc2F)n1")
"> 100 µM (inactive)"
>>> result("COc1ccc(C(N)=NOC(=O)Cc2cccs2)cc1")
"37.2 µM (active)"
>>> result("COc1ccc(C(=O)COC(=O)c2n[nH]c3ccccc23)c(OC)c1")
"29.9 µM (active)"

Problem: Dear colleague, please send me the reported IC50 for `COC(=O)Nc1nnc(-c2ccccc2Cl)s1` when you can.
Solution: 18.9 µM (active)

---

Each record here notes measured EC50.
- Measurement Target: Zinc finger protein mex-5 (Caenorhabditis elegans, UniProt Q9XUB2)
- Sequence (Q9XUB2 whole entry): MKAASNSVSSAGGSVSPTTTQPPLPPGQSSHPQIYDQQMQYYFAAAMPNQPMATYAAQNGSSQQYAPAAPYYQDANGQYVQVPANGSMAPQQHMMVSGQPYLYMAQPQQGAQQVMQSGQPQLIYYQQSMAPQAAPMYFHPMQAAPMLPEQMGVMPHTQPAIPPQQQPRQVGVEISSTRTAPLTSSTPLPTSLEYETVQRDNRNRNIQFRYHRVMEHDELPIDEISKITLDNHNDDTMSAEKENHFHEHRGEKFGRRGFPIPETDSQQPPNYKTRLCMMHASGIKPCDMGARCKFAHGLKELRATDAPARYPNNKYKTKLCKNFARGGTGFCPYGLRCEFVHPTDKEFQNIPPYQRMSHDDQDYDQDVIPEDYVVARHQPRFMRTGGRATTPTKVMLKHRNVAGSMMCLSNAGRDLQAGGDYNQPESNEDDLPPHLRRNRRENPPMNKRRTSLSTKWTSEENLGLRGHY
- Assay Method Text: MEX-5/TCR-2 RNA interaction inhibitors, dose response, biochemical, C. elegans, fluorescence polarization (AID 1960)
Active and inactive are the calls of the source.

Please review the entries below; each comes with its answer.
>>> result("CC(C)(C)OC(=O)N1CC=C2C(C#N)=C(N)C(C#N)(C#N)[C@H](c3cccnc3)[C@H]2C1")
"54 µM (active)"
>>> result("CCc1cc[n+](-c2[n-]c(=O)sc2C=O)cc1")
"11.8 µM (active)"
>>> result("O=C(O)c1cccc(-n2cccc2/C=N/O)c1")
"> 300 µM (not active)"
>>> result("CC(=O)N(C1=C(Cl)C(=O)c2ccccc2C1=O)C1CCCCC1")
"8.18 µM (active)"
>>> result("O=C1C2CC=C(Cl)CC2C(=O)N1CCCCCCN1C(=O)C2CC=C(Cl)CC2C1=O (stereo not given)")
"12.2 µM (active)"

Problem: Please give measured EC50 of the following entry: `Oc1ccc(-c2cn3c(n2)SCC3)cc1O`
Solution: 1.77 µM (active)

Problem: Fill in reported EC50 for this entry: COC(=O)CCC(=O)OC1(C)C(=O)C2=COC(c3ccc(OC)cc3)=CC2=C(Br)C1=O (stereo not given)
Solution: 33.1 µM (active)

Problem: Check the records and state EC50 for COc1ccc(C2C(C#N)=C(N)OC3=C2C(=O)CCC3)cc1Cn1nc(C)c([N+](=O)[O-])c1C (stereo not given)
Solution: > 300 µM (not active)

Problem: Give me measured EC50, please, for this molecule: `Cc1cccn2c(=O)c3cc(C(=O)NCCN4CCOCC4)c(=N)n(Cc4cccnc4)c3nc12`
Solution: 87.2 µM (active)

Problem: Given the molecule `O=C(N/N=C/c1ccc(-c2ccc([N+](=O)[O-])cc2)o1)c1cccnc1` , write its reported EC50.
Solution: 27.4 µM (active)

---

- Measurement Target: Cytochrome P450 2C19 (Homo sapiens)
- Sequence (P33261 whole entry): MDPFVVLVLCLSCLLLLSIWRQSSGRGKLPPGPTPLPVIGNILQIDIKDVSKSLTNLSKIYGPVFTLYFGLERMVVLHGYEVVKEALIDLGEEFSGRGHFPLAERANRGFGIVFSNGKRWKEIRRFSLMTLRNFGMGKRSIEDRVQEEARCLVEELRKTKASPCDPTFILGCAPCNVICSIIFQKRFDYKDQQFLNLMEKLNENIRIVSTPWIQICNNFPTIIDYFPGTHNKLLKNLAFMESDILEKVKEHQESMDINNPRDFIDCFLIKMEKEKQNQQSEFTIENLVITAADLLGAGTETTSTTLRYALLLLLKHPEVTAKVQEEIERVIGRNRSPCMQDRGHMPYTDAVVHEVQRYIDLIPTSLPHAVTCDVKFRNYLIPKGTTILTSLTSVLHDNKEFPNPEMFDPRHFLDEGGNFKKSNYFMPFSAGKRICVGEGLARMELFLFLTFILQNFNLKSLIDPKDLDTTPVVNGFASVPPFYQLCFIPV
- Assay Method Text: Cytochrome panel assay with activity outcomes. Panel member name: p450-cyp2c19 Compounds with AC50 equal or less than 10 uM are considered active
- Assay type: functional
- Settings: read-out: AC50
Property: AC50; scope: individual molecules

>>> result("O=C(OCc1ccc(Cl)cc1)c1ccccc1C(=O)c1ccccc1")
"0.0891 µM (inconclusive)"
>>> result("COc1ccc(C2C(C(=O)c3ccc(Cl)cc3)=C(O)C(=O)N2CCN2CCOCC2)c(OC)c1 (stereo unspecified)")
"39.8 µM (inconclusive)"
>>> result("COc1cc(OC)c2cc(-c3ccncc3)cnc2c1")
"31.6 µM (inconclusive)"
>>> result("Cc1ccc(/C=N/NC(=O)C2CCN(Cc3ccc(F)cc3Cl)CC2)o1")
"31.6 µM (inconclusive)"

Problem: Report its AC50 with Cytochrome P450 2C19 (Homo sapiens) as the test system: `N#Cc1sc2nc(-c3cccs3)cc(-c3ccc(Cl)cc3)c2c1N`
Solution: 3.98 µM (inconclusive)

Problem: Look up Cytochrome P450 2C19 (Homo sapiens) data: AC50 of CC1CCCN(CC(O)COCC2COc3ccccc3O2)C1 (stereo unspecified) , then report it.
Solution: 5.01 µM (inconclusive)

Problem: Provide AC50, tested on Cytochrome P450 2C19 (Homo sapiens), for `COc1ccccc1-c1nccc(NC2CCNCC2)n1` .
Solution: 1.58 µM (inconclusive)

Problem: Write down measured AC50 (Cytochrome P450 2C19 (Homo sapiens)) for this molecule. `Cc1ccc(S(=O)(=O)N2CCC(C(=O)NCc3cccnc3)CC2)cc1`
Solution: 17.8 µM (inconclusive)

---

- Assay Method Text: Luminescence Cell-Based Dose Retest to Confirm Inhibitors of Cancer Stem Cells. [Related pubchem assays (depositor defined):AID2717, AID2721]
- Format: functional
- Settings: Homo sapiens
Active and inactive are the calls of the source.
Readout Kind: AC50

Problem: Supply measured AC50 of `Nc1nc(Nc2ccccc2)nc(NC2CCCCC2)c1[N+](=O)[O-]` in your reply.
Solution: 4.62 µM (active)

---

- Measurement Target: Short transient receptor potential channel 4 (Mus musculus, UniProt Q9QUQ5)
- Sequence (Q9QUQ5 whole entry): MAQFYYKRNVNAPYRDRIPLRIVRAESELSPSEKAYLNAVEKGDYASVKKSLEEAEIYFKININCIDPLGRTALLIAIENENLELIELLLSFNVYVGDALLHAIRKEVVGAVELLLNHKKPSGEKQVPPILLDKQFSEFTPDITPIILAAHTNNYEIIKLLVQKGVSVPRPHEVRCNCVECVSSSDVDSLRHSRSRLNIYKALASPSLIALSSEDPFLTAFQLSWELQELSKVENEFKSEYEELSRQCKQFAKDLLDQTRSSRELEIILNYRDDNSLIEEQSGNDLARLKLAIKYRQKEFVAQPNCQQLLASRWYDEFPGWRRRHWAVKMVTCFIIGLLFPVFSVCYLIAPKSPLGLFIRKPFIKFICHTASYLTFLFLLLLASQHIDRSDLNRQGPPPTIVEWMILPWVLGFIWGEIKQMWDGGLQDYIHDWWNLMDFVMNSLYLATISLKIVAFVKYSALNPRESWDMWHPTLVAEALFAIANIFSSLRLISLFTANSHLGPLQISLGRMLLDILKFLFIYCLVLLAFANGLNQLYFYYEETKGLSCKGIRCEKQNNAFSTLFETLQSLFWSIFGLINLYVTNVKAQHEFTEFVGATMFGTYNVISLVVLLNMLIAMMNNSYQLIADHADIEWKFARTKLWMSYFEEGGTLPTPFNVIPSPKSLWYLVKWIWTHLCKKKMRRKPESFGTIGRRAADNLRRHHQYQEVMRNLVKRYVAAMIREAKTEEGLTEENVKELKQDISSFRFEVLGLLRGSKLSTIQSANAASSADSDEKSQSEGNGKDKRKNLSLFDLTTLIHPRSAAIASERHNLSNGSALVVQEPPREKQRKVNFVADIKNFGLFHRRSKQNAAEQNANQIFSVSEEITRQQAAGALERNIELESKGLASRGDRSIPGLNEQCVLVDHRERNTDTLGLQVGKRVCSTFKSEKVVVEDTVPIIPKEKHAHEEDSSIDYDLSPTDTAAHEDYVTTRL
- Assay Method Text: mouse TRPC4 channel activators, dose response, cell-based, HEK293 TRPC4/mu-opioid, Fluo-4 calcium (AID 434937)
- Format: functional
Active and inactive are the calls of the source.
Readout Kind: EC50

Answered cases to consult:
>>> result("CCN1CCN(c2c(Cl)cccc2NC(=O)c2ccc([N+](=O)[O-])cc2)CC1")
"0.421 µM (active)"
>>> result("CC12CCCCN1CCCc1c2[nH]c2ccccc12 (configuration not stated)")
"4.22 µM (active)"
>>> result("O=C(Nc1ccc(Cl)cc1)N1CCC(c2nc(-c3cccs3)no2)CC1")
"3.35 µM (active)"

Problem: Give a short answer stating reported EC50 for `CCOC(=O)C1(CCCc2ccccc2)CCN(Cc2cn(CC)nc2C)CC1` .
Solution: 0.119 µM (active)

Problem: Supply EC50 value. Item: COc1ccc(/C=C/CN2CCCC(C(=O)c3ccc(OC)c(F)c3)C2)cc1 (configuration not stated)
Solution: 10.6 µM (active)

Problem: Give reported EC50 value for `Cc1ccc2nc(N(CCCN(C)C)C(=O)c3ccc(S(=O)(=O)N4CCc5ccccc5C4)cc3)sc2c1`
Solution: 3.35 µM (active)

Problem: Consider the compound `CCCOc1ccc(C(=O)NNC(=S)NC(=O)c2cccs2)cc1` . State its measured EC50.
Solution: 3.76 µM (active)
